# Measured On: His6-NEDD8 (UniProt Q15843 1-76)
# Sequence (Q15843 1-76): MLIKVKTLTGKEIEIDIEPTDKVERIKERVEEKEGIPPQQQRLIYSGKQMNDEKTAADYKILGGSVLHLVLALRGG
# Test Method Notes: BLI
Endpoint Label: Kd
Please format your answer as a value with the unit trailing.

GET /value?item= RHKQEEQDRLLALQLQKEVDKEQM (domain or fragment, UniProt Q8IYW5 439-462, looked up) [GST-RNF168-MIU2 (439-462)] &field=Kd returns 14 µM
